Value source: patent US11724999B2

- test_system: GST-human KRas166 (G12V) GPPNHP (Homo sapiens, UniProt P01116, G12V)
- Construct: made in house; host or cells: E. coli C41(DE3)
- test_description: KRas small-molecule screening by SPR (BIACORE T200)
- Format: binding
- run_conditions: compound at final concentration of 100 uM; immobilised GST-KRAS166 (G12V) GPPNHP, GST reference channel
result_type: SPR Response Units (Response Units)

INSERT INTO assay_data (compound, units_text, reported) VALUES
  ('O=C(NC[C@@H]1COc2ccc(OCc3ccccc3)cc2O1)c1ncco1 [Example 3]', 'Response Units', 12),
  ('CN1CCC(C(=O)NC[C@@H]2COc3ccc(OCc4ccc(F)cc4)cc3O2)CC1 [Example 31]', 'Response Units', 28),
  ('CC(=O)N1CCC(NC[C@@H]2COc3ccc(OCc4ccccc4)cc3O2)CC1 [Example 34]', 'Response Units', 23),
  ('O=C(NC[C@@H]1COc2ccc(OCc3ccccc3)cc2O1)C1CCOCC1 [Example 5]', 'Response Units', 25),
  ('O=C(NC[C@@H]1COc2ccc(OCc3cn[nH]c3)cc2O1)c1ncco1 [Example 20]', 'Response Units', 40),
  ('O=C(NCc1ccc(CN2CCNCC2)cc1)C1COc2ccc(OCc3ccccc3)cc2O1 (stereo not shown) [Example 74]', 'Response Units', 115),
  ('O=C(c1ncco1)N(CC1CCN(Cc2ccccc2)CC1)C[C@@H]1COc2ccc(OCc3ccccc3)cc2O1 [Example 42]', 'Response Units', 93),
  ('N[C@H]1CC[C@@H](NC(=O)C2COc3ccc(OCc4ccccc4)cc3O2)CC1 (stereo partly shown) [Example 75]', 'Response Units', 51),
  ('CN1CCC(C(=O)NC[C@@H]2COc3ccc(OCc4cccc(Cl)c4)cc3O2)CC1 [Example 30]', 'Response Units', 64),
  ('CN1CCN(Cc2cccc(CNC(=O)C3COc4ccc(OCc5ccccc5)cc4O3)c2)CC1 (stereo not shown) [Example 62]', 'Response Units', 93),
  ('CN1CCN(Cc2ccc(C(=O)NC[C@@H]3COc4ccc(OCc5ccccc5)cc4O3)o2)CC1 [Example 2]', 'Response Units', 224),
  ('CN(C)CCCOc1ccc(CN(C[C@@H]2COc3ccc(OCc4ccccc4)cc3O2)C(=O)c2ncco2)cc1 [Example 40]', 'Response Units', 173),
  ('CN1CCC(N(C)C(=O)NC[C@@H]2COc3ccc(OCc4ccccc4)cc3O2)CC1 [Example 81]', 'Response Units', 75),
  ('CN1CCC(NC(=O)NC[C@@H]2COc3ccc(OCc4ccccc4)cc3O2)CC1 [Example 80]', 'Response Units', 93),
  ('CN1CCN(Cc2ccc(C(=O)NC[C@@H]3COc4ccc(OCc5ccc(Cl)cn5)cc4O3)o2)CC1 [Example 26]', 'Response Units', 48),
  ('CNC(=O)C(NC[C@@H]1COc2ccc(OCc3ccccc3)cc2O1)c1ccccc1 (stereo partly shown) [Example 49]', 'Response Units', 67),
  ('O=C1CC(CNC(=O)C2COc3ccc(OCc4ccccc4)cc3O2)CCN1 (stereo not shown) [Example 71]', 'Response Units', 7),
  ('O=C(c1ncco1)N(C[C@@H]1COc2ccc(OCc3ccccc3)cc2O1)C1CCN(Cc2ccccc2)CC1 [Example 43]', 'Response Units', 35),
  ('Cc1ccccc1COc1ccc2c(c1)O[C@H](CNC(=O)C1CCN(C)CC1)CO2 [Example 32]', 'Response Units', 37),
  ('O=C(NCC1COCCN1)C1COc2ccc(OCc3ccccc3)cc2O1 (stereo not shown) [Example 76]', 'Response Units', 48),
  ('CN1CCC(CNC[C@@H]2COc3ccc(OCc4ccccc4)cc3O2)CC1 [Example 46]', 'Response Units', 75),
  ('CN1CCC2(CC1)NC(=O)N(C[C@@H]1COc3ccc(OCc4ccccc4)cc3O1)C2=O [Example 77]', 'Response Units', 49),
  ('O=C(NC[C@@H]1COc2ccc(OCc3cccnc3)cc2O1)c1ncco1 [Example 19]', 'Response Units', 40),
  ('Cc1ccc(COc2ccc3c(c2)O[C@H](CNC(=O)C2CCN(C)CC2)CO3)cc1 [Example 29]', 'Response Units', 37),
  ('COc1ccc(COc2ccc3c(c2)O[C@H](CNC(=O)c2ccc(CN4CCN(C)CC4)o2)CO3)cc1 [Example 22]', 'Response Units', 96),
  ('CN1CCC(C(=O)NC[C@@H]2COc3ccc(OCc4ccccc4)cc3O2)CC1 [Example 1]', 'Response Units', 48),
  ('O=C(NCc1ccncc1)C1COc2ccc(OCc3ccccc3)cc2O1 (stereo not shown) [Example 68]', 'Response Units', 57),
  ('CN1CCC(COc2ccc3c(c2)O[C@H](CNC(=O)c2ncco2)CO3)CC1 [Example 21]', 'Response Units', 9),
  ('O=C(CC1CCNCC1)NC[C@@H]1COc2ccc(OCc3ccccc3)cc2O1 [Example 16]', 'Response Units', 25),
  ('CN(C)CC(=O)N[C@H]1CC[C@@H](N(Cc2ccn[nH]2)C[C@@H]2COc3ccc(OCc4ccccc4)cc3O2)CC1 [Example 51]', 'Response Units', 166),
  ('O=C(NC[C@@H]1COc2ccc(OCc3ccccc3)cc2O1)C1CCN(Cc2ccco2)CC1 [Example 15]', 'Response Units', 33),
  ('O=C1CCCN1CC(NC[C@@H]1COc2ccc(OCc3ccccc3)cc2O1)c1ccccc1 (stereo partly shown) [Example 47]', 'Response Units', 48),
  ('O=C(Cc1cccnc1)NC[C@@H]1COc2ccc(OCc3ccccc3)cc2O1 [Example 11]', 'Response Units', 68),
  ('O=C(C1COc2ccc(OCc3ccccc3)cc2O1)N1CCN(CC2CCOCC2)CC1 (stereo not shown) [Example 64]', 'Response Units', 36);
